Items are presented alongside their recorded pIC50.
target: PDE6 enzyme; assay: Method 2A: Alternative Human Retina PDE6 Enzyme Inhibition Scintillation Proximity Assay (SPA); type: biochemical; details: Table F, WO2004096810 examples
Note on units: pIC50 is unitless, being -log10 of a concentration expressed in mol/L.

The cases that follow already have their pIC50 on record.
Would you kindly share the measured pIC50 for Cc1ccnc(Nc2nc(N3CCC(C(=O)O)CC3)nc3c(C)nn(CCOCC(F)(F)F)c23)c1 ?
6.96

# query: pIC50 of entry CCc1nn(CCOCC(F)(F)F)c2c(Nc3cc(C)ncn3)nc(N3CCC(C(=O)O)CC3)nc12
7.51

Continuing:
Quick check: pIC50 of Cc1cc(Nc2nc(N3CCC(C(=O)O)CC3)nc3c(C)nn(CCOCC(F)(F)F)c23)ncn1 ?
7.18

---

target: PDE5 enzyme (Homo sapiens, UniProt O76074); construct: The PDE5 enzyme isolated from human platelets; from tissue; host or cells: human platelets; experiment: Method 1: Human Platelet PDE5 Enzyme Inhibition Scintillation Proximity Assay; format: biochemical; settings: METHOD 1: PDE5 IC50, Table B, WO2004096810 examples
pIC50: −log10 of the molar value.
Categories are defined by ranges of pIC50, namely one = under 8, two = from 8 up to 9, three = 9 and over

Sample answers from the record:
For this compound, which bin applies? CCc1nn(CCOCC(F)(F)F)c2c(Nc3ccncn3)nc(N3CCN[C@H](C)C3)nc12 [WO2004096810 Example 249]
three

Which category fits this record: CCOCCn1nc(CC)c2nc(N3C[C@@H](C)NC[C@@H]3C)nc(Nc3cc(C)ccn3)c21 [WO2004096810 Example 148]
two

Class? Entry: CCOCCn1nc(C)c2nc(N3CCN[C@H](C)C3)nc(Nc3cnc(C)c(C)c3)c21 [WO2004096810 Example 199]
two

Further cases:
Please let me know in which category the item CCOCCn1nc(C)c2nc(N(C)CCN(C)C)nc(Nc3ccncn3)c21 [WO2004096810 Example 216] belongs.
one

---

experiment: Method 11: Single Dose Pharmacokinetics and Oral Bioavailability in Male Sprague-Dawley Rat; type: in vivo; details: plasma, po, 2 mg/kg, mean
Here, each record is paired with measured Tmax data.
Value expressed in min; do not type the unit.

Query (compound): CCOCCn1nc(CC)c2nc(N3CCC(C(=O)O)CC3)nc(Nc3cc(C)ccn3)c21 [Carboxypiperidine Compound] ; field requested: Tmax
30

Others:
Quick one: Tmax for CCc1nn(CCOCC(F)(F)F)c2c(Nc3cc(C)ncn3)nc(N3CCC(C(=O)O)CC3)nc12 [WO2004096810 Example 263] ?
19.8

Sample Cc1cc(Nc2nc(N3CCC(C(=O)O)CC3)nc3c(C)nn(CCOCC(F)(F)F)c23)ncn1 [WO2004096810 Example 262] — what was its Tmax?
40.2

Query (compound): Cc1ccnc(Nc2nc(N3CCC(C(=O)O)CC3)nc3c(C)nn(CCOCC(F)(F)F)c23)c1 [WO2004096810 Example 261] ; field requested: Tmax
40.2

---

Collected AUC(0-inf) values appear next to each entry.
assay: Method 11: Single Dose Pharmacokinetics and Oral Bioavailability in Male Sprague-Dawley Rat; assay type: in vivo; settings: plasma, iv, 2 mg/kg, mean
Give just the numeric value; ng·h/mL need not be written.

For the compound shown here, CCc1nn(CCOCC(F)(F)F)c2c(Nc3cc(C)ncn3)nc(N3CCC(C(=O)O)CC3)nc12 [WO2004096810 Example 263] , give the reported AUC(0-inf).
555

Which AUC(0-inf) is listed for CCOCCn1nc(CC)c2nc(N3CCC(C(=O)O)CC3)nc(Nc3cc(C)ccn3)c21 [Carboxypiperidine Compound] ?
17500

Given the compound Cc1cc(Nc2nc(N3CCC(C(=O)O)CC3)nc3c(C)nn(CCOCC(F)(F)F)c23)ncn1 [WO2004096810 Example 262] , what is its reported AUC(0-inf)?
440

Kindly consider the entry below.
Suppose we examine the compound Cc1ccnc(Nc2nc(N3CCC(C(=O)O)CC3)nc3c(C)nn(CCOCC(F)(F)F)c23)c1 [WO2004096810 Example 261] ; what AUC(0-inf) value has been reported?
19000
